ASSAY TARGET: Human Factor D (Homo sapiens, UniProt P00746)
Construct: purified from human serum
Sequence (P00746 26-253): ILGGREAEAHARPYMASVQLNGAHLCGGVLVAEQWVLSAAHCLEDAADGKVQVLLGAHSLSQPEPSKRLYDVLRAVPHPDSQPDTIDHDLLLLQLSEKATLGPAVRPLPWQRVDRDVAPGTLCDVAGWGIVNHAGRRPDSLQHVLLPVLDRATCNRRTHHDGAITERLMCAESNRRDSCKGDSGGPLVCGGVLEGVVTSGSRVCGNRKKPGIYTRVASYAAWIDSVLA
PROTOCOL DESCRIPTION: Human Factor D Assay
CONDITION PARAMETERS: Human Factor D 80 nM, substrate Z-L-Lys-SBzl, assay of Example 12
PARAMETER MEASURED: IC50

Which IC50 is listed for "Cc1cccc(NC(=O)[C@@H]2CC=CCN2C(=O)Cn2cc(C(N)=O)c3cc(Nc4cccnn4)ccc32)n1" ?
> 10 µM
